- systemTested: human recombinant Btk (Homo sapiens)
- Sequence (Q06187 whole entry): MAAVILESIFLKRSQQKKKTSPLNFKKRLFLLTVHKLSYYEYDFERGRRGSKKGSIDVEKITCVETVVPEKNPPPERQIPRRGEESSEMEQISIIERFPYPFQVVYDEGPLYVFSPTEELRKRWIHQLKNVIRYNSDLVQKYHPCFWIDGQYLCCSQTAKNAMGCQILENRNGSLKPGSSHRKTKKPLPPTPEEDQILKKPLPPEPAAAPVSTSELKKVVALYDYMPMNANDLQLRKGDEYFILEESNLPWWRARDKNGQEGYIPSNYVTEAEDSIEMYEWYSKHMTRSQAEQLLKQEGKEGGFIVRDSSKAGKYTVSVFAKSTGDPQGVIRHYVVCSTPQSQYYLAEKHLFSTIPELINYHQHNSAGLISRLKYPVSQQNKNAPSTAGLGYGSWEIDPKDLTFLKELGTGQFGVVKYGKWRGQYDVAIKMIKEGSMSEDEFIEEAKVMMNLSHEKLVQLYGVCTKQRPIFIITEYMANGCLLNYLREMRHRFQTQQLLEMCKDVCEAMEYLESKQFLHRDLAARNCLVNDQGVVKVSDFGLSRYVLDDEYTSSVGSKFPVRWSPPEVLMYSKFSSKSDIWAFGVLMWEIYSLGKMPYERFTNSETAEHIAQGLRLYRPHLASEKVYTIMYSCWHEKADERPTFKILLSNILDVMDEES
- protocolSummary: Btk Enzymatic Activity Assay (Caliper-based kinase assay)
- appliedConditions: human recombinant Btk 2 nM, ATP 40 μM, peptide substrate 1 μM, room temperature, 3 h; read-out: IC50 (inhibition of Btk kinase activity)
testReadout: pIC50
Numbers only, as −log10 of the molar value.

These solved cases illustrate the format of a correct answer.
[
  {
    "smiles": "Nc1ncnc2c1c(-c1ccc(Oc3ccccc3)cc1)nn2CCN1C(=O)SC(=Cc2ccccc2)C1=O",
    "systemTested": "human recombinant Btk (Homo sapiens)",
    "observedResult": 6.07
  },
  {
    "smiles": "Nc1ncnc2c1c(-c1ccc(Oc3ccccc3)cc1)nn2C[C@H]1CCCN1C(=O)C(F)=CC1CC1",
    "systemTested": "human recombinant Btk (Homo sapiens)",
    "observedResult": 6.69
  },
  {
    "smiles": "Nc1ncnc2c1c(-c1ccc(Oc3ccccc3)cc1)nn2CCCN1C(=O)SC(=CC2CC2)C1=O",
    "systemTested": "human recombinant Btk (Homo sapiens)",
    "observedResult": 7.64
  },
  {
    "smiles": "Nc1ncnc2c1c(-c1ccc(Oc3ccccc3)cc1)nn2C[C@H]1CCCN1C(=O)C(=CC1CC1)C(F)(F)F",
    "systemTested": "human recombinant Btk (Homo sapiens)",
    "observedResult": 7.39
  }
]

In the following, a different molecule is considered.
Under human recombinant Btk (Homo sapiens), report pIC50 for `Nc1ncnc2c1c(-c1ccc(Oc3ccccc3)cc1)nn2CCN1C(=O)SC(=CC2CC2)C1=O` 7.31
